System: Rel synthetase (ST)
Assay: Inhibition of Rel synthetase activity: (p)ppGpp production from GDP or GTP and radioactive ATP, TLC
Assay type: biochemical
Conditions: enzyme with GDP or GTP and radioactive ATP, absence or presence of compound
Procedure: As indicated above, the “Yes/No” in the 5th and 6th columns of TABLES A to F indicates whether there is, or respectively is not an inhibition of the synthetase (ST) and/or hydrolase (HD) activity. […] The action of a candidate compound is evaluated based on its effect on the production of (p)ppGpp. […]
experimental endpoint: ST (inhibition of the synthetase activity)

Reference set, count: 7
compound | experimental result
O=C(Cc1ccc(Cl)cc1)Nc1ccc(-c2ccc(NC(=O)Cc3ccc(Cl)cc3)c(C(=O)O)c2)cc1C(=O)O | Yes
Cc1c(C(=O)N(CCC(=O)O)CC2CCCO2)sc2ncn(C)c(=O)c12 (centres unmarked) | No
O=C(O)c1cccc(Nc2ncnc3[nH]cnc23)c1 | No
Cc1[nH]c2ccnn2c(=O)c1CC(=O)N(CCC(=O)O)CC1CCCO1 (centres unmarked) | No
O=C(O)c1cc(NS(=O)(=O)c2ccc3c4c(cccc24)C(=O)N3)cnc1Cl | Yes
Cc1ccc(CC(=O)Nc2ccc(N3CCC(N4CCCCC4)CC3)cc2C(=O)O)cc1 | Yes
O=C1Nc2ccccc2/C1=N/N=C/c1ccc(-c2ccccc2[N+](=O)[O-])o1 | Yes

// switching to the query compound
Lookup: Query: ST (inhibition of the synthetase activity); subject: Cc1cc(OCC(=O)O)c2c(C)c(Cc3ccccc3)c(=O)oc2c1
Found: Yes
